- Tested On: human CB2 receptors (Homo sapiens (Human))
- Sequence (P34972 whole entry): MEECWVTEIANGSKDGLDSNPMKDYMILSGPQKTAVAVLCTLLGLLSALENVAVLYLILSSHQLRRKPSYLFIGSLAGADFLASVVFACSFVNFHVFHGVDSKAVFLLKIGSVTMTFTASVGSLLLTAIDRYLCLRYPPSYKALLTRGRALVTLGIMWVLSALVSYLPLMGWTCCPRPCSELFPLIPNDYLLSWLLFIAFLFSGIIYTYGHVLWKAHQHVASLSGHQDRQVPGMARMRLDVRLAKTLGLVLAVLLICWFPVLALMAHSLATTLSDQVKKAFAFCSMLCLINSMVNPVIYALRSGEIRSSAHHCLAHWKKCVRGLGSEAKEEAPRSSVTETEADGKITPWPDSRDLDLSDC
- Experimental Protocol: cAMP assay, CHO cells expressing human CB2 receptors
- Type: cell-based
- Test Conditions: CHO cells expressing human CB2, cAMP; read-out: human CB2 EC50
Recorded Metric: EC50

>>> val("Cc1nc([C@H](NC(=O)c2cccc(-c3ccc(F)c(Cl)c3)n2)C2CC2)no1")
"10.1 nM"
>>> val("O=C(NC1CCCOC1)c1cccc(-c2cccc(Cl)c2)n1 (centres unmarked)")
"658 nM"
>>> val("CC(C)(NC(=O)c1ccc(C(F)(F)F)c(OCC2CC2)n1)c1ncon1")
"227 nM"
>>> val("CC(C)C[C@H](NC(=O)c1ccc(N2CC(F)(F)C2)c(OCC2CC2)n1)c1cccnn1")
"80.1 nM"
>>> val("CNC(=O)[C@@H](NC(=O)c1ccc(N2CC(F)(F)C2)c(OCC2CC2)n1)C(C)(C)C")
"8.9 nM"
>>> val("CNC(=O)C(C)(C)NC(=O)c1ccc(C)c(OCC2CC2)n1")
"974 nM"
>>> val("Cc1nc(C(C)(C)NC(=O)c2ccc(C(F)(F)F)c(OCC3CC3)n2)no1")
"259 nM"
>>> val("CCC(CC)(NC(=O)c1ccc(C(F)(F)F)c(OCC2CC2)n1)C(=O)NC")
"5.1 nM"

---

- Tested On: UniProtKB P21554
- Sequence (P21554 whole entry): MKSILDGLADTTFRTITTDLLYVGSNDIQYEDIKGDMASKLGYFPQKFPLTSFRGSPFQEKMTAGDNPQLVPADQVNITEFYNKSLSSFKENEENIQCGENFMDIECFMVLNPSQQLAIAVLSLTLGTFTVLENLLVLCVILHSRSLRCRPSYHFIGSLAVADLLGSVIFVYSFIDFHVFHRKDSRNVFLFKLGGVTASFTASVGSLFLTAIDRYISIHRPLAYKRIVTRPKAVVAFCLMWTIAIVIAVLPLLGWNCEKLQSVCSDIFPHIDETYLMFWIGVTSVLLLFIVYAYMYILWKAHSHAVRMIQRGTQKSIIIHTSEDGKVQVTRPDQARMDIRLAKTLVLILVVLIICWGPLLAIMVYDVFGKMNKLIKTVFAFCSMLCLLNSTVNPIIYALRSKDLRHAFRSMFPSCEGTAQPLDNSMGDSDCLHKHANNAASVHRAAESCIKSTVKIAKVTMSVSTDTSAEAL
- Experimental Protocol: cAMP assay, CHO cells expressing human CB1 receptors
- Type: cell-based
- Test Conditions: CHO cells expressing human CB1, cAMP; read-out: human CB1 EC50
Recorded Metric: EC50

>>> val("CC1(COc2nc(C(=O)NC(C)(C)c3nccs3)ccc2Br)COC1 [Example 280]")
"1.49 µM"
>>> val("CC(C)C[C@H](C#N)NC(=O)c1ccc(C2CC2)c(OCC2CC2)n1 [Example 247]")
"> 10 µM"
>>> val("CC1(C)CCc2ccc(C(=O)NC(C)(C)CO)nc2C1 [Example 145]")
"> 10 µM"
>>> val("CCC(CC)(NC(=O)c1ccc(C2CC2)c(OCC2CCCO2)n1)C(=O)OC (stereo not drawn) [Example 233]")
"0.071 µM"
>>> val("NC(=O)[C@@H](NC(=O)c1ccc(N2CC(F)(F)C2)c(OCC2CC2)n1)C1CC1 [Example 376]")
"> 10 µM"
>>> val("CNC(=O)[C@H](CC(C)C)NC(=O)c1ccc(C2CC2)c(OCC2CCOCC2)n1 [Example 203]")
"0.0749 µM"
>>> val("COCCOCC(C)(C)NC(=O)c1ccc(N2CC(F)(F)C2)c(-c2cccc(Cl)c2)n1 [Example 152]")
"> 10 µM"
>>> val("CCC(CC)(NC(=O)c1ccc(C(F)(F)F)c(OCC2CCCO2)n1)C(=O)N(C)C (stereo not drawn) [Example 264]")
"0.602 µM"
>>> val("CC1(C)CCc2ccc(C(=O)NC[C@](C)(O)C3CC3)nc2C1 [Example 143]")
"> 10 µM"
>>> val("CCOC(=O)C(CC)(CC)NC(=O)c1ccc(C2CC2)c(OCC2CC2)n1 [Example 257]")
"0.347 µM"
>>> val("CNC(=O)[C@H](CC(C)C)NC(=O)c1cccc(-c2ccc(F)c(Cl)c2)n1 [Example 212]")
"> 10 µM"
>>> val("O=C(c1ccc(N2CCC(F)(F)C2)c(OCC2CC2)n1)N1CCS(=O)(=O)CC1 [Example 79]")
"> 10 µM"
>>> val("O=C(NC1CCCCC1CO)c1cccc(C2CCCCC2)n1 (stereo not drawn) [Example 122]")
"> 10 µM"
>>> val("O=C(NN1CCCCC1)c1cccc(OCC2CC2)n1 [Example 68]")
"> 10 µM"
>>> val("CCC(CC)(NC(=O)c1ccc(C2CC2)c(OCC2CC2)n1)C(=O)NCC1CC1 [Example 284]")
"> 10 µM"
>>> val("O=C(NC1(c2nccs2)COC1)c1ccc(C2CC2)c(OCC(F)(F)F)n1 [Example 304]")
"> 10 µM"
>>> val("CNC(=O)[C@@H](NC(=O)c1ccc(N2CC(F)(F)C2)c(OCC2CC2)n1)C(C)(C)C [Example 208]")
"> 10 µM"
>>> val("O=C(NC1(CO)CCCC1)c1ccc(C2CC2)c(OCC2CC2)n1 [Example 175]")
"> 10 µM"

// provenance: patent US9290451B2
